# EXPERIMENTAL DETAILS: in vivo
# CONDITION INFO: C57BL/6, mouse
MEASURED ENDPOINT: half-life at 7 h (h)
State the answer as a number, implicitly in h.

Ask: State the recorded half-life at 7 h for this entry: CC(C)c1ccc(N2CCc3cc(O)ccc3C2(C)c2ccc(/C=C/C(=O)O)cc2)cc1 (stereo unspecified)
Reply: 1.1

----------
# EXPERIMENTAL DETAILS: Oral bioavailability in Beagle dog at 10 mg/kg administered as solution measured up to 7 hrs by LC/MS/MS analysis
# Type: ADME, organism-based, Canis lupus familiaris
# CONDITION INFO: in vivo
MEASURED ENDPOINT: bioavailability (%)
Your answer is read as %, so omit the unit and give the number.

Ask: Could you tell me which bioavailability is on file for CC(C)c1ccc(N2CCc3cc(O)ccc3C2(C)c2ccc(/C=C/C(=O)O)cc2)cc1 (stereo unspecified) ?
Reply: 56
